test: Early RBV plasma exposure (AUC0-4h) after a 600 mg first dose of RBV; assay type: in vivo, human (patients with chronic hepatitis C); conditions: human, plasma, oral, 600 mg, HIV-HCV coinfected patients with CD4 ≥ 500/mm^3; median (range); read-out: AUC0-4h
recorded_endpoint: AUC(0-t) (ng·h/mL)
Numbers only, in ng·h/mL.

## Task Look at this molecule and give its reported AUC(0-t). NC(=O)c1ncn([C@@H]2O[C@H](CO)[C@@H](O)[C@H]2O)n1
## Result 1840

###

assay: Early RBV plasma exposure (AUC0-4h) after a 600 mg first dose of RBV; type: in vivo, human (patients with chronic hepatitis C); conditions: human, plasma, oral, 600 mg, all three HIV-HCV coinfected patients with detectable HIV RNA; read-out: AUC0-4h
recorded_endpoint: AUC(0-t)

## Task Recorded AUC(0-t) for NC(=O)c1ncn([C@@H]2O[C@H](CO)[C@@H](O)[C@H]2O)n1 , please?
## Result < 1.76 µg·h/mL
